Test target: DNA gyrase from E. coli (Escherichia coli, UniProt P0AES4+P0AES6)
Sequence (P0AES4 whole entry, one chain of several): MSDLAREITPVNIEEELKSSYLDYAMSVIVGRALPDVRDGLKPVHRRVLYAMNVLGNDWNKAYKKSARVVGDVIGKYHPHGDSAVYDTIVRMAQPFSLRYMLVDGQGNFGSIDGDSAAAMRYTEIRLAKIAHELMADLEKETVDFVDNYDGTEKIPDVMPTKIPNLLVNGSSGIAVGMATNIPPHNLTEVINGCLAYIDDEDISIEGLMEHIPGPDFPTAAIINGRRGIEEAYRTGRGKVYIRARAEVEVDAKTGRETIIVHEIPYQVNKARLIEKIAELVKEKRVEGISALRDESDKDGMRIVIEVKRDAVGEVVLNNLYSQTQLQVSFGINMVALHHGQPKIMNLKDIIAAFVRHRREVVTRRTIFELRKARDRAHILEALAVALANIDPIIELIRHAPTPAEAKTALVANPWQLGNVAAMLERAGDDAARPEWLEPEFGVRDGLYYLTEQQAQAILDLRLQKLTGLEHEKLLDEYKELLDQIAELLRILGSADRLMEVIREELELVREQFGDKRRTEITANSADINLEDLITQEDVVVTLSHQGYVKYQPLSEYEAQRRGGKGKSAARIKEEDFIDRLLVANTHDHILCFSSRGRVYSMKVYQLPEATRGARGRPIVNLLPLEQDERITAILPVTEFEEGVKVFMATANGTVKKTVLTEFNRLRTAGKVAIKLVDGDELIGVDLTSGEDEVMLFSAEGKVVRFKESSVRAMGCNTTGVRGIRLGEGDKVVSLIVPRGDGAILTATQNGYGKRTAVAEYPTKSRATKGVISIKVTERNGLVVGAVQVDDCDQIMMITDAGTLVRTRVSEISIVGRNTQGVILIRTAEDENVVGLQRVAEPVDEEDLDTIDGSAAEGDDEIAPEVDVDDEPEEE
Test: Inhibitory activity on E. coli DNA gyrase (Inspiralis supercoiling assay)
Property: IC50

Please indicate IC50 recorded for CCC(=O)Nc1ccc2cc(-c3cc(C(=O)O)ccc3CN(C)C3CCCCC3)c(=O)oc2c1 [Compound 12] 78 nM
